Data origin, for the record: ChEMBL document CHEMBL1201862

# Test system: SF-268
# test-method-notes: NCI tumour cell line growth inhibition, 48 h
Calls of active or inactive are those of the source. No stated cut-off is given here; in the data, active = GI50 up to about 1.1 µM and inactive = higher.
GI50 by entry:

# molecule, GI50
data = [
    ("CCCN(CCCCC(NC(C)=O)C(=O)NCc1ccccc1)C(=O)NCCCl (stereo not given)", "> 100 µM (inactive)"),
    ("CC(C)=CCNc1nc(Cl)nc2[nH]cnc12", "55 µM (inactive)"),
    ("CC(=O)OC1CC[C@]2(C)C3CC[C@@]4(C)C(CCC4[C@H](C)CCCC(C)C)[C@@H]3CCC2(Br)C1 (stereo not given in full)", "11.7 µM (inactive)"),
    ("Cc1nc2sc(C(=O)c3ccc(Cl)cc3)c(N)c2c(-c2ccccc2Cl)c1C(=O)Nc1ccccc1", "19.3 µM (inactive)"),
    ("COc1ccc(-c2cc(N3CCN(c4ccccc4)CC3)c(C#N)c(=O)o2)cc1", "8.55 µM (inactive)"),
    ("COc1ccc(-n2c3c(c4c(CN(C)C)c(O)ccc42)C(=O)c2ccccc2C3=O)cc1", "10.1 µM (inactive)"),
    ("CCn1c(-c2ccc(OC(C)=O)cc2)c(C)c2cc(OC(C)=O)ccc21 [ZINDOXIFENE]", "16.6 µM (inactive)"),
    ("COc1ccc(Nc2cnc3cc(N)ccc3n2)cc1OC", "74.1 µM (inactive)"),
    ("CN1C(=O)N(C)C2(CCN(CC(CC3OCCO3)c3ccc(F)cc3)CC2)C1=O (stereo not given)", "> 100 µM (inactive)"),
    ("OC1c2ccccc2CCC1C(O)(C(F)(F)F)C(F)(F)F (stereo not given)", "> 100 µM (inactive)"),
]
